assay: qHTS assay for small molecule agonists of the antioxidant response element (ARE) signaling pathway (AID 743202); details: HepG2 ARE-bla reporter, beta-lactamase FRET, 16 h; series mostly up to 73.3 µM; for activation: % is set by controls: 0 for no effect and ±100 for the full control effect
Results filed as inconclusive are left out. Active and inactive are the calls of the source. Calls come from the whole dose curve; as a rule, active = well fitted activation curve with a large enough effect in the signal ratio in the repeat runs (not every such curve was filed as active); inconclusive = weak or mixed curves, or effect the other way; inactive = no such curve, though single readings can be large or run the other way; the % refers to the signal ratio.
Thanks in advance; please answer with one of these: active, inactive

Worked cases, answers included:
molecule: CCC(=O)O[C@@H]1C=C2CCC3C(CCC4(C)C3CC[C@@H]4OC(=O)CC)C2CC1 (stereo partly specified)
groupLabel: inactive
--
molecule: COc1ccc(C(O)(c2cncnc2)C2CC2)cc1 (stereo unspecified)
groupLabel: inactive
--
molecule: O=C(O)c1cc(Cl)ccc1Cl
groupLabel: inactive
--
molecule: N#CC(C#N)=C(C#N)C#N
groupLabel: active
--
molecule: Clc1ccc2ccccc2c1
groupLabel: inactive

Field: next molecule
(Q) Call for entry COc1ccc2c(c1OC)C(=O)O[C@H]2[C@@H]1c2cc3c(cc2CCN1C)OCO3 :
(A) inactive

====

assay: qHTS assay to identify small molecule antagonists of the thyroid receptor (TR) signaling pathway - cell viability counter screen (AID 743064); settings: GH3.TRE-Luc viability, CellTiter-Fluor, 24 h; series mostly up to 70.3 µM; note: nearly all actives have a fitted effect of over 50% in size
Results filed as inconclusive are left out. Activity calls are given as the source filed them. Calls come from the whole dose curve; as a rule, active = well fitted cell-killing curve with a large enough effect in the repeat runs; inconclusive = weak or mixed curves, or effect the other way; inactive = no such curve, though single readings can be large or run the other way.
Answer with one of the outcomes given here: true (1) for active, false (0) for inactive

compound: CCOP(=S)(OCC)Oc1ccc(S(C)=O)cc1 (configuration not stated)
groupLabel: false (0)

(Q) For this compound, state the assay outcome: CCCSP(=S)(OCC)Oc1ccc(SC)cc1 (configuration not stated)
(A) false (0)

(Q) How about this compound: CCCN(CCC)c1c([N+](=O)[O-])cc(C(C)C)cc1[N+](=O)[O-]
(A) true (1)

(Q) # iterate: CCC[N+](CCC)(CCC)CCC
(A) false (0)

(Q) Now give it for CCOP(=O)(O)C(N)=O too.
(A) false (0)

(Q) Try CCCC1CCCCN1 (configuration not stated) next.
(A) false (0)

(Q) Next compound up: CN1CC[C@]23c4c5ccc(O)c4O[C@H]2[C@@H](O)CC[C@H]3[C@H]1C5
(A) false (0)

====

assay: qHTS assay to identify small molecule antagonists of the androgen receptor (AR) signaling pathway using the MDA cell line in the presence of 0.5 nM R1881 - cell viability counter screen (AID 1259242); details: MDA-kb2 viability, CellTiter-Fluor protease fluorescence, 16 h; series mostly up to 92.4 µM; note: % is set by controls: 0 for no effect and ±100 for the full control effect; nearly all actives have a fitted effect of over 45% in size
Inconclusive results are not listed. Calls of active or inactive are those of the source. The call rests on the fitted dose curve; in most records, active means well fitted cell-killing curve with a large enough effect in the repeat runs; inconclusive means weak or mixed curves, or effect the other way; inactive means flat fitted curve, though single readings scatter.
Result category, one only: TRUE = active, FALSE = inactive

Illustrative cases are given below, each with its answer.
molecule: CC(Oc1cccc(Cl)c1)C(=O)O (configuration not stated)
groupLabel: FALSE
--
molecule: O=C(O)CCCOc1ccc(Cl)cc1Cl
groupLabel: FALSE
--
molecule: C=CCOC(=O)C(C)(C)OC(=O)c1cc(-n2c(=O)cc(C(F)(F)F)n(C)c2=O)ccc1Cl
groupLabel: FALSE

(Q) Which outcome was assigned to N#CC(C#N)=Cc1ccc(O)c(O)c1 in this test?
(A) FALSE

(Q) What do you get for COC1CC(=C(c2cccs2)c2cccs2)C[N+](C)(C)C1 (configuration not stated) ?
(A) FALSE

(Q) How about C[C@]12CC[C@H]3[C@@H](CCC4=CC(=O)CC[C@@H]43)[C@@H]1CC[C@@H]2OC(=O)CCc1ccccc1 ?
(A) FALSE

(Q) Now try CCC1(CCC(C)C)C(=O)NC(=O)NC1=O .
(A) FALSE

====

experiment: qHTS assay to identify small molecule agonists of the androgen receptor (AR) signaling pathway in the presence of an antagonist - cell viability counter screen (AID 1259379); details: MDA-kb2 viability, CellTiter-Fluor, 16 h; series mostly up to 92.4 µM;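 note: MDA-kb2 human breast cancer cells carrying an MMTV luciferase reporter; % is set by controls: 0 for no effect and ±100 for the full control effect; nearly all actives have a fitted effect of over 25% in size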
Records with an inconclusive call do not appear. Calls of active or inactive are those of the source. Calls follow the shape of the dose curve; as a rule, active = well fitted cell-killing curve with a large enough effect in the repeat runs; inconclusive = weak or mixed curves, or effect the other way; inactive = flat fitted curve, though single readings scatter.
measuredParameter: activity change, negative = cytotoxicity

molecule: O=C(O)C(O)C(O)C(=O)O (stereo not drawn)
activity change, negative = cytotoxicity: inactive
--
molecule: CC(C)(C#N)C(C)(C)C#N
activity change, negative = cytotoxicity: inactive
--
molecule: C=CC(C)(CCC=C(C)C)OC(=O)c1ccccc1N (stereo not drawn)
activity change, negative = cytotoxicity: inactive
--
molecule: C[C@H]1[C@@H]2Cc3ccc(O)cc3[C@@]1(C)CCN2C
activity change, negative = cytotoxicity: inactive
--
molecule: C=CCc1ccc(OC(=O)Cc2ccccc2)c(OC)c1
activity change, negative = cytotoxicity: inactive

(Q) Look at this molecule and give its reported activity change, negative = cytotoxicity. CC(C)CCCCCCCOC(=O)c1ccccc1C(=O)OCCCCCCCC(C)C
(A) inactive

(Q) What would you report for CC(=O)NNc1ccccc1 ?
(A) inactive

(Q) For CC(Cl)C(=O)O (stereo not drawn) then?
(A) inactive

(Q) Can you check CN(C)N next?
(A) inactive

(Q) Okay, and Clc1ccccc1 ?
(A) inactive

(Q) Please answer likewise for CN[C@@H](C)[C@H](O)c1ccccc1
(A) inactive

(Q) Here is the next molecule: NC(=O)CF
(A) inactive

(Q) Let us now turn to CC(Cc1ccccc1)NCc1ccccc1Cl (stereo not drawn)
(A) inactive

====

assay: qHTS assay for identifying genotoxic compounds that show differential cytotoxicity against isogenic chicken DT40 cell lines with known DNA damage response pathways - wild type cell line (AID 743012); settings: DT40 wild type chicken cells viability, CellTiter-Glo, 40 h; series mostly up to 68.4 µM; note: nearly all actives have a fitted effect of over 60% in size
Results filed as inconclusive are left out. Activity calls are given as the source filed them. Calls come from the whole dose curve; as a rule, active = well fitted cell-killing curve with a large enough effect in the repeat runs; inconclusive = weak or mixed curves, or effect the other way; inactive = no such curve, though single readings can be large or run the other way.
Select the matching outcome among yes for active, no for inactive

(Q) Which outcome was entered for the compound CC(C)CCCCCCCOC(=O)c1ccccc1C(=O)OCCCCCCCC(C)C in this test?
(A) no

(Q) Repeat for the following compound: CC(C)(C)NCC(O)c1cc(Cl)c(N)c(C(F)(F)F)c1 (stereo not drawn)
(A) no

(Q) Field entry: CC(C)(C)c1ccc(CCOc2ncnc3ccccc23)cc1
(A) no

(Q) Now give it for CCCSP(=S)(OCC)Oc1ccc(SC)cc1 (stereo not drawn) too.
(A) yes

(Q) Request: N#CC(C#N)=C(C#N)C#N
(A) no

(Q) For Cc1ccccc1 then?
(A) no

(Q) And then NC(=O)CF , what is it?
(A) no

(Q) Do the same for Cc1nc(N(C)C)nc(OC(=O)N(C)C)c1C please
(A) no

(Q) What about this compound? OCC1CO1 (stereo not drawn)
(A) no

(Q) Quick one: O=C=NC1CCCCC1
(A) no

(Q) Param item: CCC(C)Cl (stereo not drawn)
(A) no

(Q) O=C(O)C(F)(F)C(F)(F)C(F)(F)C(F)(F)C(F)(F)F , same question.
(A) no

(Q) Next compound up: CCCCCCCCP(=O)(O)O
(A) no

(Q) Would you mind doing CCOC(=O)C1OC1(C)c1ccccc1 (stereo not drawn) as well?
(A) no

(Q) Follow-up entry: CC(C)c1ccc(NC(=O)N(C)C)cc1
(A) no

(Q) Proceed to C=CCN1C[C@H](C)N([C@H](c2ccc(C(=O)N(CC)CC)cc2)c2cccc(OC)c2)C[C@H]1C
(A) yes

(Q) Consider next the compound O=C(Cc1ccccc1)OCCc1ccccc1 in the same way.
(A) yes

(Q) Continue with O=C(O)C(Cl)(Cl)Br
(A) no

====

assay: qHTS assay for small molecules that induce genotoxicity in human embryonic kidney cells expressing luciferase-tagged ATAD5 - cell viability (AID 651634); details: HEK293T ATAD5-luc cells viability, CellTiter-Fluor, 15.5 h; series mostly up to 83.3 µM; note: nearly all actives have a fitted effect of over 25% in size
Records with an inconclusive call do not appear. The source made the active and inactive calls. Calls come from the whole dose curve.
Pick from Yes = active, No = inactive when you respond.

compound: CC(O)CN1CCN(CC(=O)[O-])CCN(CC(=O)[O-])CCN(CC(=O)[O-])CC1.[Gd+3] (centres undefined)
groupLabel: No

(Q) Hi, do you know how O=C1c2ccccc2C(=O)N1SC(Cl)(Cl)Cl came out in this test?
(A) Yes

(Q) Same lookup for Nc1ccc2c(c1)Cc1ccccc1-2 , please.
(A) No

====

Assay: qHTS assay to identify small molecule that activate the aryl hydrocarbon receptor (AhR) signaling pathway - cell viability counter screen (AID 743086);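 note: HepG2 liver cells carrying the AhR DRE luciferase reporter; % is set by controls: 0 for no effect and ±100 for the full control effect; nearly all actives have a fitted effect of over 45% in size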
Conditions: HepG2-AhR-luc viability, CellTiter-Fluor, 24 h; series mostly up to 70.3 µM
Source text: U.S. Tox21 Program National Center for Advancing Translational Sciences [NCATS] NIH Chemical Genomics Center [NCGC] U.S. Environmental Protection Agency [EPA] National Institutes of Environmental Health Sciences [NIEHS] National Toxicology Program [NTP] U.S. Food and Drug Administration [FDA] Tox21 Assay overview: The Aryl hydrocarbon Receptor (AhR), a member of the family of basic helix-loop-helix transcription factors, is crucial to adaptive responses to environmental changes. […]
Results filed as inconclusive are left out. Calls of active or inactive are those of the source. Calls come from the whole dose curve; as a rule, active = well fitted cell-killing curve with a large enough effect in the repeat runs; inconclusive = weak or mixed curves, or effect the other way; inactive = flat fitted curve, though single readings scatter.
measuredParameter: outcome

molecule: CCOP(=S)(OCC)SCSc1cc(Cl)ccc1Cl
outcome: inactive
--
molecule: CCN(C(C)=O)c1cccc(-c2ccnc3c(C#N)cnn23)c1
outcome: inactive
--
molecule: Cc1ccc2c(C)cccc2c1
outcome: inactive
--
molecule: CC1(C)CC(=O)CC(C)(C)N1[O]
outcome: inactive
--
molecule: O=C(NCNC(=O)NC1C(=O)NC(=O)N1CO)NC1C(=O)NC(=O)N1CO (stereo unspecified)
outcome: inactive

(Q) Field request: outcome | item: O=C(Cc1ccccc1)OCCc1ccccc1
(A) inactive

(Q) Then this molecule: N#CC1(N=NC2(C#N)CCCCC2)CCCCC1
(A) inactive

(Q) Also, CC(C)(C)NCC(O)c1ccccc1Cl (stereo unspecified) please.
(A) inactive

(Q) Try Cc1cnc(C2=NC(C)(C(C)C)C(=O)N2)c(C(=O)O)c1 (stereo unspecified) next.
(A) inactive

(Q) Then ClCc1ccccc1Cl ?
(A) inactive

(Q) Another molecule: O=C([O-])c1ccccn1.O=C([O-])c1ccccn1.O=C([O-])c1ccccn1.[Cr+3]
(A) inactive

(Q) What would you report for CCOC(=O)NC(O)C(Cl)(Cl)Cl (stereo unspecified) ?
(A) inactive

(Q) Try the molecule CC(C)CCCCCCCOC(=O)c1ccccc1C(=O)OCCCCCCCC(C)C
(A) inactive

(Q) # iterate: O=[N+]([O-])/C=C/c1ccccc1
(A) inactive

(Q) Can you check C[N+]1(CCF)[C@@H]2CC[C@H]1CC(OC(=O)C(O)(c1ccccc1)c1ccccc1)C2 (stereo partly specified) next?
(A) inactive

(Q) Check C[C@H](N)[C@H](O)c1ccc(O)c(O)c1 too.
(A) inactive

(Q) # repeat for CCCCCBr
(A) inactive

(Q) Same again, this time with N#CC(C#N)=Cc1ccc(O)c(O)c1
(A) inactive

(Q) Try this molecule too: CCOC(=O)C1OC1(C)c1ccccc1 (stereo unspecified)
(A) inactive

(Q) Here is the next molecule: CON(C)C(=O)Nc1ccc(Cl)cc1
(A) inactive

(Q) Now try N#CC(C#N)=C(C#N)C#N .
(A) inactive
